target: Transient receptor potential cation channel subfamily V member 1 (Homo sapiens, UniProt Q8NER1); assay: Agonist activity at human TRPV1 receptor expressed in HEK293 cells assessed as intracellular calcium stimulation relative to inomycin; assay type: functional, cell-based
Sequence (Q8NER1 whole entry): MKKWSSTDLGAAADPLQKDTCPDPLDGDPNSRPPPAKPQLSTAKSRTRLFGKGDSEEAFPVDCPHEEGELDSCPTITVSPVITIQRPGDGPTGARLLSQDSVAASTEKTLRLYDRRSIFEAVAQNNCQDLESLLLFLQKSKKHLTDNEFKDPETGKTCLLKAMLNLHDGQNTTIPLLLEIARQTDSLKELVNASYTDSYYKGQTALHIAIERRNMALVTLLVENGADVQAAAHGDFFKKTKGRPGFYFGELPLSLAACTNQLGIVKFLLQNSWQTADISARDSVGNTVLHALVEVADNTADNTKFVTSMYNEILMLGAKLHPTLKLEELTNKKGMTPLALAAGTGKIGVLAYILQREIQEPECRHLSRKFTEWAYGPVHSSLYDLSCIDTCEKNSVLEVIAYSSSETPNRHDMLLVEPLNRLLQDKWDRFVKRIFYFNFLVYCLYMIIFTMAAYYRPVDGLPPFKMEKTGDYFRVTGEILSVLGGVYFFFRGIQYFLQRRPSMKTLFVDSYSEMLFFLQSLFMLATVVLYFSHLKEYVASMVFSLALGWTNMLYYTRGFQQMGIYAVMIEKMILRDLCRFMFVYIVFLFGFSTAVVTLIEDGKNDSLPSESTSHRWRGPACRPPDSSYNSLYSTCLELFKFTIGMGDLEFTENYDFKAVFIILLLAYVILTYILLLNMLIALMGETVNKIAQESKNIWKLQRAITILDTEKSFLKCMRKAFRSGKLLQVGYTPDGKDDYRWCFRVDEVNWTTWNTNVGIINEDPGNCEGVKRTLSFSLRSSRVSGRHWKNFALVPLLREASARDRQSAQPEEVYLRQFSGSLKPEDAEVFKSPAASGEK
METRIC: Efficacy (%)

INSERT INTO measurements (structure_as_smiles, value_reported) VALUES
  ('CC(C)[C@@H]1CC[C@@H](C)C[C@H]1NC(=O)NCCc1c[nH]c2ccc(O)cc12', 12.7),
  ('CC(C)[C@@H]1CC[C@@H](C)C[C@H]1NC(=O)Oc1ccc(C(F)(F)F)cc1', 3.3),
  ('CC(C)[C@@H]1CC[C@@H](C)C[C@H]1NC(=O)Oc1cccc(Cl)c1', 22.6),
  ('Cc1ccc(OC(=O)N[C@@H]2C[C@H](C)CC[C@H]2C(C)C)cc1', 3.4),
  ('CC(C)[C@@H]1CC[C@@H](C)C[C@H]1NC(=O)Oc1ccc(Cl)cc1', 15.1);

[a] CC(C)[C@@H]1CC[C@@H](C)C[C@H]1NC(=O)c1ccc(-c2ccccc2)cc1
[b] CC(C)[C@@H]1CC[C@@H](C)C[C@H]1NC(=O)Oc1ccc(-c2ccccc2)cc1
[in] Param metric = Efficacy; output whichever of a , b has the minimum value. Answer with the label corresponding to your selection.
[out] b
(b: 4.4%, a: 7.8%)

[a] COc1ccc(C(=O)N[C@@H]2C[C@H](C)CC[C@H]2C(C)C)cc1
[b] CCCCCCCC/C=C\CCCCCCCC(=O)N[C@@H]1C[C@H](C)CC[C@H]1C(C)C
[c] CC(C)[C@@H]1CC[C@@H](C)C[C@H]1NC(=O)Oc1cccc(C(C)(C)C)c1
[d] COc1cc(CNC(=O)N[C@@H]2C[C@H](C)CC[C@H]2C(C)C)ccc1O
[in] Order the records so the highest Efficacy appears first and the lowest last. Form field (ranking): labels in requested order.
[out] d, c, a, b

The measurements presented in this section are drawn from ChEMBL document CHEMBL1158538.
